Target: Capsid scaffolding protein (Human cytomegalovirus (strain AD169) (HHV-5) (Human herpesvirus 5))
Experiment: Potency against human cytomegalovirus protease in HCMV pNA assay
measured_metric: Ki (nM)
Expressed in nM, but write only the number.

q: Look at this compound and give its reported Ki. CC(C)c1ccc(NC(=O)N2CCC[C@H]2C(=O)N2CC[C@H]3[C@H]2[C@H](C)C(=O)N3c2nc3ccc(CO)cc3s2)cc1
a: 40

q: Look at this compound and give its reported Ki. CCCOc1ccc(C(=O)N2CCC[C@H]2C(=O)N2CC[C@H]3[C@H]2[C@H](C)C(=O)N3C(=O)C2CC2)cc1
a: 79

q: Look at this compound and give its reported Ki. CC(C)c1ccc(NC(=O)N2CCC[C@H]2C(=O)N2CC[C@H]3[C@H]2[C@H](C)C(=O)N3c2nc3ccc([N+](=O)[O-])cc3s2)cc1
a: 25

q: Look at this compound and give its reported Ki. CC(C)c1ccc(S(=O)(=O)N2CCC[C@H]2C(=O)N2CC[C@H]3[C@H]2[C@H](C)C(=O)N3C(=O)C2CC2)cc1
a: 99

q: Look at this compound and give its reported Ki. CCCOc1ccc(-c2ccc(C(=O)N3CCC[C@H]3C(=O)N3CC[C@H]4[C@H]3[C@H](C)C(=O)N4C(=O)C3CC3)cc2)cc1
a: 79

q: Look at this compound and give its reported Ki. CC(C)c1ccc(NC(=O)N2CCC[C@H]2C(=O)N2CC[C@H]3[C@H]2[C@H](C)C(=O)N3c2nc3ccc(OC(F)(F)F)cc3s2)cc1
a: 20

q: Look at this compound and give its reported Ki. Cc1c(C(=O)N2CCC[C@H]2C(=O)N2CC[C@H]3[C@H]2[C@H](C)C(=O)N3C(=O)C2CC2)sc2ccc(Cl)cc12
a: 2

----------
Biological target: Capsid scaffolding protein (Human cytomegalovirus (strain AD169) (HHV-5) (Human herpesvirus 5), UniProt P16753)
Sequence (P16753 1-256 limits assumed): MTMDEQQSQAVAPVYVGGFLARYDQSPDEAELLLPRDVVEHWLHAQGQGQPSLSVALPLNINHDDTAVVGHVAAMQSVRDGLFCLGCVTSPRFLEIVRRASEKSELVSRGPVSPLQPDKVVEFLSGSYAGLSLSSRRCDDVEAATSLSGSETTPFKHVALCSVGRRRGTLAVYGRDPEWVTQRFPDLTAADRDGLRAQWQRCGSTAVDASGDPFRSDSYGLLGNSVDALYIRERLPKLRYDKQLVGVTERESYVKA
Assay: Inhibition of human cytomegalovirus protease in HCMV pNA assay.
The label 1 is reserved for IC50 strictly under 800 nM; -1 covers values equal to or above it.

q: Please check: IC50 for COc1ccc2nc(N3C(=O)[C@@H](C)[C@@H]4[C@@H]3CCN4C(=O)[C@@H]3CCCN3C(=O)Nc3ccc(C(C)C)cc3)sc2c1 , strictly under 800 nM or not?
a: 1

q: Please check: IC50 for CC(C)c1ccc(NC(=O)N2CCC[C@H]2C(=O)N2CC[C@H]3[C@H]2[C@H](C)C(=O)N3c2nc3c(Cl)cccc3s2)cc1 , strictly under 800 nM or not?
a: 1

q: Please check: IC50 for C[C@@H]1C(=O)N(C(=O)C2CC2)[C@H]2CCN(C(=O)[C@@H]3CCCN3C(=O)c3cccc4ccccc34)[C@H]12 , strictly under 800 nM or not?
a: -1

q: Please check: IC50 for CC(C)c1ccc(NC(=O)N2CCC[C@H]2C(=O)N2CC[C@H]3[C@H]2[C@H](C)C(=O)N3c2nc3ccccc3s2)cc1 , strictly under 800 nM or not?
a: 1

q: Please check: IC50 for C[C@@H]1C(=O)N(C(=O)C2CC2)[C@H]2CCN(C(=O)[C@@H]3CCCN3S(=O)(=O)c3ccc(-c4ccc(Cl)cc4)cc3)[C@H]12 , strictly under 800 nM or not?
a: -1

q: Please check: IC50 for COc1ccc2nc(N3C(=O)[C@@H](C)[C@@H]4[C@@H]3CCN4C(=O)[C@@H]3CCCN3C(=O)Nc3ccc(C(C)C)cc3)sc2n1 , strictly under 800 nM or not?
a: -1
